- System: Vero E6 infected with SARS-CoV-2
- protocol-text: morphology score (similarity to uninfected cells); higher = more like uninfected cells
- experimental-conditions: 24 h
Catalogue of compounds with associated morphology score
# respond with the number and nothing more

Past entries and their recorded results:
| compound | test-target | morphology score |
| --- | --- | --- |
| Cn1c(=O)n(-c2ccc(C(C)(C)C#N)cc2)c2c3cc(-c4cnc5ccccc5c4)ccc3ncc21 (10 µM) | Vero E6 infected with SARS-CoV-2 | 0.0712 |
| CCCOc1ccc2c(c1)CC[C@@H]1[C@@H]2CC[C@]2(C)[C@@H](OC)CC[C@@H]12 [promestriene] (10 µM) | Vero E6 infected with SARS-CoV-2 | 0.169 |

morphology score in this record for CCOc1ccccc1OC(c1ccccc1)C1CNCCO1 (centres undefined) [reboxetine] (10 µM) : -0.0871

Note to self: morphology score recorded for CCCCCCCCCCCCCCCC=O [1-hexadecanal] (10 µM) was 0.185
